Tested on: Staphylococcus aureus
Assay: Antimicrobial activity against Staphylococcus aureus ATCC 12600 for 17 to 48 hrs by MTT assay
Type: functional
parameter.measured: MIC (µg/mL)
Lab book: enter the figure in µg/mL, no units written.

Data request: # input compound: "CC[C@@H]1[C@@H](C)O[C@@](OC)([C@@H](C)[C@H](O)[C@H](C)[C@H]2OC(=O)/C=C/C=C/[C@H](C)[C@@H]([C@@H](C)[C@@H](O)[C@H](C)[C@@]3(O)C[C@@H](O[C@H]4C[C@H](O)[C@H](O)[C@H](C)O4)[C@H](CC)[C@@H](C)O3)OC(=O)/C=C/C=C/[C@@H]2C)C[C@H]1O[C@H]1C[C@H](O)[C@H](O)[C@H](C)O1" ; wanted: its MIC
Data returned: 1.56

Data request: # input compound: "CC[C@@H]1[C@@H](C)O[C@@](O)([C@@H](C)[C@H](O)[C@H](C)[C@H]2OC(=O)/C=C/C=C/[C@H](C)[C@@H]([C@@H](C)[C@@H](O)[C@H](C)[C@@]3(O)C[C@@H](O[C@H]4C[C@H](O)[C@H](O)[C@H](C)O4)[C@H](CC)[C@@H](C)O3)OC(=O)/C(C)=C/C=C/[C@@H]2C)C[C@H]1O[C@H]1C[C@H](O)[C@H](O)[C@H](C)O1" ; wanted: its MIC
Data returned: 0.78

Data request: # input compound: "CC[C@@H]1[C@@H](C)O[C@@](OC)([C@@H](C)[C@H](O)[C@H](C)[C@H]2OC(=O)/C=C/C=C/[C@H](C)[C@@H]([C@@H](C)[C@@H](O)[C@H](C)[C@@]3(OC)C[C@@H](O[C@H]4C[C@H](O)[C@H](O)[C@H](C)O4)[C@H](CC)[C@@H](C)O3)OC(=O)/C=C/C=C/[C@@H]2C)C[C@H]1O[C@H]1C[C@H](O)[C@H](O)[C@H](C)O1" ; wanted: its MIC
Data returned: 1.56

Data request: # input compound: "CC[C@@H]1[C@@H](C)O[C@@](OC)([C@@H](C)[C@H](O)[C@H](C)[C@H]2OC(=O)/C=C/C=C/[C@H](C)[C@@H]([C@@H](C)[C@@H](O)[C@H](C)[C@@]3(OC)C[C@@H](O[C@H]4C[C@H](O)[C@H](O)[C@H](C)O4)[C@H](CC)[C@@H](C)O3)OC(=O)/C(C)=C/C=C/[C@@H]2C)C[C@H]1O[C@H]1C[C@H](O)[C@H](O)[C@H](C)O1" ; wanted: its MIC
Data returned: 1.56

Data request: # input compound: CC1(C)S[C@@H]2[C@H](NC(=O)[C@H](N)c3ccccc3)C(=O)N2[C@H]1C(=O)O [AMPICILLIN] ; wanted: its MIC
Data returned: 0.78

Data request: # input compound: "CC[C@@H]1[C@@H](C)O[C@@](OC)([C@@H](C)[C@H](O)[C@H](C)[C@H]2OC(=O)/C(C)=C/C=C/[C@H](C)[C@@H]([C@@H](C)[C@@H](O)[C@H](C)[C@@]3(OC)C[C@@H](O[C@H]4C[C@H](O)[C@H](O)[C@H](C)O4)[C@H](CC)[C@@H](C)O3)OC(=O)/C(C)=C/C=C/[C@@H]2C)C[C@H]1O[C@H]1C[C@H](O)[C@H](O)[C@H](C)O1" ; wanted: its MIC
Data returned: 3.13

Data request: # input compound: "CC[C@@H]1[C@@H](C)O[C@@](O)([C@@H](C)[C@H](O)[C@H](C)[C@H]2OC(=O)/C=C/C=C/[C@H](C)[C@@H]([C@@H](C)[C@@H](O)[C@H](C)[C@@]3(O)C[C@@H](O[C@H]4C[C@H](O)[C@H](O)[C@H](C)O4)[C@H](CC)[C@@H](C)O3)OC(=O)/C=C/C=C/[C@@H]2C)C[C@H]1O[C@H]1C[C@H](O)[C@H](O)[C@H](C)O1" ; wanted: its MIC
Data returned: 0.78
